# assayProtocol: Growth inhibition of MDCK1 cells after 72 hrs by MTT assay
# Parameters: species or system Canis lupus familiaris
# recordedConditions: dog
endpointLabel: GI50 at 72 h (µM)

cpdSmiles	endpointLabel	relationSymbol	recordedNumber
Cl.Cl.Cl.Clc1ccc2c(NCCOc3ccc(-c4nc5ccc(C6=NCCN6)cc5[nH]4)cc3)ccnc2c1	GI50 at 72 h	>	100
Cl.Cl.Cl.N=C(N)c1ccc2nc(-c3ccc(Oc4ccnc5cc(Cl)ccc45)cc3)[nH]c2c1	GI50 at 72 h	>	100
Cl.Cl.Clc1ccc2c(NCCOc3ccc(C4=NCCN4)cc3)ccnc2c1	GI50 at 72 h	=	78.4
Cl.Cl.Cl.N=C(NC1CCCC1)c1ccc2nc(-c3ccc(OCCNc4ccnc5cc(Cl)ccc45)cc3)[nH]c2c1	GI50 at 72 h	=	99.2
N#Cc1ccc(Oc2ccnc3cc(Cl)ccc23)cc1	GI50 at 72 h	=	88.5
Cl.Cl.Cl.Clc1ccc2c(NCCOc3ccc(-c4nc5ccc(C6=NCCCN6)cc5[nH]4)cc3)ccnc2c1	GI50 at 72 h	=	100
Cl.Cl.Clc1ccc2c(Oc3ccc(C4=NCCN4)cc3)ccnc2c1	GI50 at 72 h	=	56.6
Cl.Cl.N=C(NC1CCCC1)c1ccc2nc(-c3ccc(Oc4ccnc5cc(Cl)ccc45)cc3)[nH]c2c1	GI50 at 72 h	=	55.5
CC(C)CNC(=N)c1ccc(OCCNc2ccnc3cc(Cl)ccc23)cc1.Cl.Cl.Cl	GI50 at 72 h	>	100

====

# Tested on: Calf thymus DNA
# assayProtocol: Binding affinity to calf thymus DNA assessed as change in melting temperature at 0.3 compound to ds-polynucleotide ratio by spectrophotometric method
# Type: nucleic-acid assay
# recordedConditions: Bos taurus
Items are presented alongside their recorded ΔTm.
endpointLabel: ΔTm (°C)

cpdSmiles	endpointLabel	recordedNumber
Cl.Cl.Clc1ccc2c(Oc3ccc(-c4nc5ccc(C6=NCCN6)cc5[nH]4)cc3)ccnc2c1	ΔTm	3.2
Cl.Cl.Cl.N=C(NC1CCCC1)c1ccc2nc(-c3ccc(OCCNc4ccnc5cc(Cl)ccc45)cc3)[nH]c2c1	ΔTm	7.8
CC(C)CNC(=N)c1ccc2nc(-c3ccc(OCCNc4ccnc5cc(Cl)ccc45)cc3)[nH]c2c1.Cl.Cl.Cl	ΔTm	8.15
Cl.Cl.Clc1ccc2c(Oc3ccc(C4=NCCCN4)cc3)ccnc2c1	ΔTm	1.86
Cl.Cl.Cl.Clc1ccc2c(NCCOc3ccc(-c4nc5ccc(C6=NCCCN6)cc5[nH]4)cc3)ccnc2c1	ΔTm	9.76
CC(C)NC(=N)c1ccc2nc(-c3ccc(Oc4ccnc5cc(Cl)ccc45)cc3)[nH]c2c1.Cl.Cl.Cl	ΔTm	1.75
CC(C)NC(=N)c1ccc2nc(-c3ccc(OCCNc4ccnc5cc(Cl)ccc45)cc3)[nH]c2c1.Cl.Cl.Cl	ΔTm	9.05
Cl.Cl.N=C(N)c1ccc(Oc2ccnc3cc(Cl)ccc23)cc1	ΔTm	2.17

====

# Test system: Raji
# assayProtocol: Growth inhibition of human Raji cells after 72 hrs by MTT assay
# Format: functional
Lab note: compare GI50 with 50 µM, writing condition met if less and condition not met if equal or more.

cpdSmiles	assignedCategory
CC(C)NC(=N)c1ccc(OCCNc2ccnc3cc(Cl)ccc23)cc1.Cl.Cl.Cl	condition not met
Cl.Cl.Cl.N=C(NC1CCCC1)c1ccc2nc(-c3ccc(OCCNc4ccnc5cc(Cl)ccc45)cc3)[nH]c2c1	condition met
Cl.Cl.Clc1ccc2c(NCCOc3ccc(C4=NCCCN4)cc3)ccnc2c1	condition not met
N#Cc1ccc(Oc2ccnc3cc(Cl)ccc23)cc1	condition not met
Cl.Cl.Cl.Clc1ccc2c(NCCOc3ccc(-c4nc5ccc(C6=NCCCN6)cc5[nH]4)cc3)ccnc2c1	condition met
Cl.Cl.Clc1ccc2c(Oc3ccc(-c4nc5ccc(C6=NCCN6)cc5[nH]4)cc3)ccnc2c1	condition met
Cl.Cl.N=C(NC1CCCC1)c1ccc(OCCNc2ccnc3cc(Cl)ccc23)cc1	condition not met
CC(C)CNC(=N)c1ccc2nc(-c3ccc(Oc4ccnc5cc(Cl)ccc45)cc3)[nH]c2c1.Cl.Cl.Cl	condition met
